Test system: T-47D breast
Assay: NCI tumour cell line growth inhibition, 48 h
Each entry below carries its reported TGI.

Data point: COc1ccc2c(c1)O/C(=C\c1cccc(OCC(=O)Nc3nc(C)c(C)s3)c1)C2=O ; TGI = > 100 µM

Data point: COC(=O)C1(O)C(c2ccccc2)NC2(C)CCCC21 (stereo not drawn) ; TGI = > 100 µM

***
Data point: OC(COc1ccccc1)CN1CCCCC1 (stereo not drawn) ; TGI = > 100 µM

---

Each entry below carries its reported TGI.
Test system: HL-60(TB) leukemia
Assay: NCI tumour cell line growth inhibition, 48 h

Examples from the recorded data:
GET /values?item= CCN(CC)c1nc(NC2CCCCC2)c2nc(N(CC)CC)nc(NC3CCCCC3)c2n1 &system= HL-60(TB) leukemia returns TGI: > 100 µM

GET /values?item= COc1cccc(NC(=O)c2sc3nc4c(cc3c2N)C(O)CCC4)c1 (stereo unspecified) &system= HL-60(TB) leukemia returns TGI: 0.534 µM

GET /values?item= COC(=O)CCC(=O)N1CC1C (stereo unspecified) &system= HL-60(TB) leukemia returns TGI: > 100 µM

GET /values?item= Cc1cc(NS(=O)(=O)c2ccc(Nc3c4ccccc4nc4c(C(=O)NCCO)cccc34)cc2)no1 &system= HL-60(TB) leukemia returns TGI: > 100 µM

GET /values?item= CN1CCN(CCCOc2cccc3nc(Nc4ccc(F)c(F)c4)ccc23)CC1 &system= HL-60(TB) leukemia returns TGI: 11 µM

Please turn your attention to the following entry.
GET /values?item= C1=NCCOCCN=Cc2ccc(cc2)OCc2cccc(n2)COc2ccc1cc2 &system= HL-60(TB) leukemia returns TGI: > 100 µM

---

Each entry below carries its reported TGI.
System: SK-MEL-2 melanoma
Assay: NCI tumour cell line growth inhibition, 48 h

Examples from the recorded data:
Data point: CN(C)N=Nc1ccc2[nH]c(=O)[nH]c2c1 ; TGI = > 100 µM

Data point: Cc1cc2nnc(C(N)=O)c(N)c2cc1C ; TGI = > 100 µM

Data point: CC(C)=C[C@@H]1O[C@H](O)[C@@H]([C@H]2CC[C@@]3(C)[C@@H]4CC[C@H]5C(C)(C)C(=O)CC[C@@]56C[C@@]46CC[C@]23C)[C@@H]1O ; TGI = 42.2 µM

***
Data point: CCOC(=O)C#Cc1c(C(=O)OCC)nnn1[C@@H]1O[C@H](CO)[C@H]2OC3(CCCCC3)O[C@H]21 ; TGI = 34 µM

Data point: O=c1c2cccnc2ncn1CCCN1CCCC1 ; TGI = > 100 µM

Data point: O=C1C(Cl)=C(NCCF)C(=O)c2ncccc21 ; TGI = 4.23 µM

Data point: O=c1[nH]nc(-c2ccc(F)cc2)cc1-c1ccccc1 ; TGI = > 100 µM

Data point: O=C(NCc1ccc2ccc3cccnc3c2n1)c1ccc[n+](Cc2ccccc2)c1 ; TGI = > 100 µM

Data point: c1ccc(C2CC(c3ccc4ccccc4c3)=Nc3ccccc3S2)cc1 (stereo not drawn) ; TGI = 34.6 µM

---

System: OVCAR-3 ovarian
Assay: NCI tumour cell line growth inhibition, 48 h
MEASURED_QUANTITY: TGI

GET /values?item= COc1cc(-c2nccc3cc4c(cc23)OCO4)cc(OC)c1OC &system= OVCAR-3 ovarian returns TGI: 4.72 µM

GET /values?item= CC[C@@H](O)C[C@H]1CCC[C@@]2(C[C@@H]3OC(=O)/C=C/[C@@](C)(O)[C@@H](O)[C@H](C)[C@@H](O)[C@H](OC4CCC(N(C)C)C(C)O4)[C@@H](O)[C@](C)(O)CCCCC/C=C/[C@@H]4CC(C)(C)O[C@@]4(O)C[C@H](O2)[C@H]3C)O1 (stereo partly drawn) &system= OVCAR-3 ovarian returns TGI: 25.5 µM

GET /values?item= Nc1c2cc3ccc2nc2ccc(cc12)OCCOCCOCCOCCOCCOCCO3 &system= OVCAR-3 ovarian returns TGI: > 10 µM

***
GET /values?item= CC1=C(C(=O)Nc2ccccc2)C(c2cc(Cl)cc(Cl)c2)C(C(=O)Nc2ccccc2)=C(C)N1 &system= OVCAR-3 ovarian returns TGI: 22.1 µM

GET /values?item= O=P1(Cc2ccccc2)c2ccccc2-c2ccccc21 &system= OVCAR-3 ovarian returns TGI: > 55.4 µM

GET /values?item= CC1(C)OC2OC(COC(=O)c3ccc(C#N)cc3)C3OC(C)(C)OC3C2O1 (stereo not drawn) &system= OVCAR-3 ovarian returns TGI: > 75 µM

GET /values?item= OC12c3ccccc3C1CCCCCC21OCCCO1 (stereo not drawn) &system= OVCAR-3 ovarian returns TGI: > 100 µM

GET /values?item= C=CCn1c(-c2ccc(Cl)cc2)csc1=Nc1ccccc1OC &system= OVCAR-3 ovarian returns TGI: > 100 µM

---

Test system: HOP-92 NSCLC
Experiment: NCI tumour cell line growth inhibition, 48 h
Each entry below carries its reported TGI.

Data point: C#C[C@]1(O)CC[C@H]2[C@@H]3CCC4=C/C(=N/OC(=O)c5cccc6c(=O)c7ccccc7[nH]c56)CCC4[C@H]3CC[C@@]21CC (stereo not given in full) ; TGI = > 100 µM

Data point: Cc1ccc(S(=O)(=O)NC(=O)NC(CCC(N)=O)C(=O)O)cc1 (stereo not given) ; TGI = > 100 µM

Data point: COc1ccc2c(c1)CCc1c(CO)c(COC(=O)NC(C)C)n(C)c1-2 ; TGI = 22.5 µM

Data point: CCCCCCCCCCOC(=O)c1cc[n+](C)cc1 ; TGI = 29.2 µM

Data point: COc1cccc(NC(=O)c2sc3nc4c(cc3c2N)C(O)CCC4)c1 (stereo not given) ; TGI = 23 µM

***
Data point: COc1cc2c3c(c1OC)C(=O)C=C3N(S(=O)(=O)c1ccc(C)cc1)CC2 ; TGI = > 100 µM

Data point: COc1cc(-c2nccc3cc4c(cc23)OCO4)cc(OC)c1OC ; TGI = > 100 µM

Data point: COc1cc(OC)c(C2(c3c(OC(C)C)c(=O)c3=O)SCCCS2)cc1OC ; TGI = > 100 µM

Data point: COC(=O)/C(=C/c1ccc(OC)cc1)C(C(=O)O)=C1CCCCC1 ; TGI = > 100 µM

Data point: COc1cc(CN(c2ccc(C)cc2)C2OC(=O)c3ccccc32)cc(OC)c1OC (stereo not given) ; TGI = > 100 µM

---

Test system: HCT-15 colon
Experiment: NCI tumour cell line growth inhibition, 48 h
MEASURED_QUANTITY: TGI

Examples from the recorded data:
Data point: Cc1ccc(SCC(OCn2cnc3c(Cl)nc(N)nc32)[C@H](C)F)cc1 (some centres not stated) ; TGI = > 100 µM

Data point: O=C1/C(=C/c2ccccc2)CCCc2ccccc21 ; TGI = 32.3 µM

Data point: Nc1ccccc1C(=O)NC(=O)Nc1ccc(Oc2ncc(Br)cn2)c(Cl)c1 ; TGI = 22.6 µM

Data point: COc1ccc2c3c1OC1C(OC)(OC)CC4(C=C2)CN(C)CCC314 (configuration not stated) ; TGI = > 100 µM

Data point: Nc1ccc(-c2ccc3ncc4ccc(=O)n(-c5cccc(C(F)(F)F)c5)c4c3c2)cn1 ; TGI = 11.7 µM

***
Data point: CN(C)c1ccc(/C=C(\NC(=O)c2ccccc2)C(=O)NC(Cc2c[nH]c3ccccc23)C(=O)O)cc1 (configuration not stated) ; TGI = > 100 µM

Data point: CCN(CC)c1ccc2nc3ccc(N=Nc4ccc(O)cc4)cc3[n+](-c3ccccc3)c2c1 ; TGI = > 100 µM

Data point: CCC[CH2][Sn]([CH2]CCC)([CH2]CCC)[O]C(=O)C(OC)c1ccccc1 (configuration not stated) ; TGI = 0.211 µM

Data point: O=C(N/C(=C/c1cccc([N+](=O)[O-])c1)c1nc2ccc(Cl)cc2[nH]1)c1ccccc1 ; TGI = > 100 µM

Data point: Cc1ccccc1N=Nc1c(-c2ccccc2)nn(C(=O)CC(=O)Nc2cccc(Cl)c2)c1-c1ccccc1 ; TGI = > 31.6 µM

Data point: N#Cc1c(-c2ccc([N+](=O)[O-])cc2)cc(-c2ccc(Nc3ccnc4cc(Cl)ccc34)cc2)nc1N ; TGI = 18.6 µM

Data point: COc1ccc(-c2nsc3c2NC(=O)CC3c2cccc(Cl)c2)cc1 (configuration not stated) ; TGI = > 100 µM

---

Test system: TK-10 renal
Test: NCI tumour cell line growth inhibition, 48 h
Each entry below carries its reported TGI.

Examples from the recorded data:
Data point: Cc1ccc(C2C(Cl)C(=O)N2NC(=O)c2ccc(N)cc2)cc1 (stereo not drawn) ; TGI = > 100 µM

Data point: O=C(NCc1ccc2ccc3cccnc3c2n1)c1ccc[n+](Cc2ccccc2)c1 ; TGI = > 100 µM

Data point: C#CC(O)/C=C/C(O)CCCC(O)CC#CC(O)C#CCCCCC(O)/C=C/CCCC(O)/C=C/CCCCCCCCCCCCCC(O)C(O)C#CC(=O)O (stereo not drawn) ; TGI = > 25 µM

Please turn your attention to the following entry.
Data point: Cc1cccc(Nc2cc(Cl)nc(SCC(=O)O)n2)c1C ; TGI = > 100 µM
